Target entity: VIPR2 (Homo sapiens, UniProt P41587)
Test protocol: % Activity: inhibition of VIP-induced cAMP elevation and β-arrestin recruitment (Table 2)
Assay type: cell-based
Set-up: expressed in transfected cells; host or cells: HEK293 cells transfected with VIPR2 in pCDNA3.1 (as described)
Measured endpoint: % Activity (%)
# unit: % | format: bare number

Compound: NC[C@@H](O)C[C@@H](Cc1ccccc1)C(=O)N[C@H]1c2ccccc2C[C@H]1O [Compound A28]
Target entity: VIPR2 (Homo sapiens, UniProt P41587)
% Activity / %: 17.45

### Prompt What value of % Activity has been reported for the following compound? O=C(NC1CCCCCC1)[C@@H](Cc1ccccc1)C[C@H](O)CNS(=O)(=O)c1ccc([N+](=O)[O-])cc1 [Compound B5B]
### Response 10.55

### Prompt Entry under review: O=C(Nc1ccc(S(=O)(=O)NC[C@@H](O)C[C@@H](Cc2ccccc2)C(=O)N[C@H]2c3ccccc3C[C@H]2O)cc1)C1CC1 [Compound X093] . Reported % Activity?
### Response 15.05

### Prompt Name the reported % Activity value associated with the compound O=C(NC[C@@H](O)C[C@@H](Cc1ccccc1)C(=O)N[C@H]1c2ccccc2C[C@H]1O)c1ccc([N+](=O)[O-])cc1 [Compound A25]
### Response 18.75

### Prompt Which measured % Activity value corresponds to C[C@H](CC(C)(C)C)NC(=O)[C@@H](Cc1ccccc1)C[C@H](O)CNS(=O)(=O)c1ccc([N+](=O)[O-])cc1 [Compound B10B] ?
### Response 13.8000

###

Target entity: VIPR2 (Homo sapiens, UniProt P41587)
Sequence (P41587 24-438): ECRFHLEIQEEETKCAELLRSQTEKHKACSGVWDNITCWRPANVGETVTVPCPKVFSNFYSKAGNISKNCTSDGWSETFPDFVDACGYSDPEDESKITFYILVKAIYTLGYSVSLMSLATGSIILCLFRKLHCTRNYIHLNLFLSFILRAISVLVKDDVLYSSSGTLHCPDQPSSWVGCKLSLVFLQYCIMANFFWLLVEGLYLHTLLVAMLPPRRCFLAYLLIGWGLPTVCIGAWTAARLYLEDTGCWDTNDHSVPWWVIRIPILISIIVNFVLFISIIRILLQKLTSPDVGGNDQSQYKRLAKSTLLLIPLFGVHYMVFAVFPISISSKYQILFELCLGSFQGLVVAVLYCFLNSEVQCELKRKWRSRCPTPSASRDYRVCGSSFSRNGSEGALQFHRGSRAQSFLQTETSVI
Test protocol: Inhibition of VIP-induced β-arrestin recruitment (% Activity Arrestin)
Format: cell-based
Set-up: expressed in transfected cells; host or cells: HEK293 cells transfected with VIPR2 in pCDNA3.1 (as described)
Measurement conditions: 5 μM, Batch 1
We use 20% as the dividing line for inhibition at 5 µM: on or above the line is condition met, below is condition not met.

Structure smiles: C=Cc1ccc(C(=O)NC[C@@H](O)C[C@@H](Cc2ccccc2)C(=O)N[C@H]2c3ccccc3C[C@H]2O)cc1
Discrete label: condition not met
--
Structure smiles: COc1ccc(S(=O)(=O)NC[C@@H](O)C[C@@H](Cc2ccccc2)C(=O)N[C@H]2c3ccccc3C[C@H]2O)cc1OC
Discrete label: condition met
--
Structure smiles: O=C(NC[C@@H](O)C[C@@H](Cc1ccccc1)C(=O)N[C@H]1c2ccccc2C[C@H]1O)c1cccnc1
Discrete label: condition not met
--
Structure smiles: O=C(NC[C@@H](O)C[C@@H](Cc1ccccc1)C(=O)N[C@H]1c2ccccc2C[C@H]1O)c1ccncc1
Discrete label: condition not met
--
Structure smiles: Cc1cc(S(=O)(=O)NC[C@@H](O)C[C@@H](Cc2ccccc2)C(=O)N[C@H]2c3ccccc3C[C@H]2O)c(C)cc1Cl
Discrete label: condition not met

### Prompt For this molecule, is measured inhibition at 5 µM 20% or higher? "O=C(CCl)NC[C@@H](O)C[C@@H](Cc1ccccc1)C(=O)N[C@H]1c2ccccc2C[C@H]1O"
### Response condition not met

### Prompt Record "O=C(CCN1C(=O)C=CC1=O)NC[C@@H](O)C[C@@H](Cc1ccccc1)C(=O)N[C@H]1c2ccccc2C[C@H]1O" ; criterion: inhibition at 5 µM no lower than 20%. Met?
### Response condition not met

### Prompt Decide: is the reported value of inhibition at 5 µM for "O=C(NC[C@@H](O)C[C@@H](Cc1ccccc1)C(=O)N[C@H]1c2ccccc2C[C@H]1O)c1ccco1" equal to or greater than 20%?
### Response condition met

###

inhibition at 5 µM listing for selected compounds.
Target entity: VIPR2 (Homo sapiens)
Sequence (P41587 24-438): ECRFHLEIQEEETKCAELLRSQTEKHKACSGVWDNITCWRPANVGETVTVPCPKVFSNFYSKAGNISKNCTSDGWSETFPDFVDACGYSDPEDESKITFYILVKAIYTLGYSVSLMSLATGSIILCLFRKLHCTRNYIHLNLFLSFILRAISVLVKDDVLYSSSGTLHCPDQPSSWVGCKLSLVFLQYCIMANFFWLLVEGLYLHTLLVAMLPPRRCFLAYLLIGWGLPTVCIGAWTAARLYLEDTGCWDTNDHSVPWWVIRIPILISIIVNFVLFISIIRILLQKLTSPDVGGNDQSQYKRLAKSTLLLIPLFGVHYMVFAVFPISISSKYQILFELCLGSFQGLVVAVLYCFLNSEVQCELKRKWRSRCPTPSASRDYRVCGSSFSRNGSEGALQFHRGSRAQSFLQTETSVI
Test protocol: Inhibition of VIP-induced cAMP elevation (% Activity cAMP)
Type: cell-based
Set-up: expressed in transfected cells; host or cells: HEK293 cells transfected with VIPR2 in pCDNA3.1 (as described)
Measurement conditions: 5 μM, Batch 1
// return numeric value only (unit: %, not printed)

Compound: O=C(NC[C@@H](O)C[C@@H](Cc1ccccc1)C(=O)N[C@H]1c2ccccc2C[C@H]1O)c1cccc(Br)c1
Unit spec: %
Readout value: 20.3

### Prompt # get_value(readout= inhibition at 5 µM, system= VIPR2 (Homo sapiens)) for "O=C(CCCCBr)NC[C@@H](O)C[C@@H](Cc1ccccc1)C(=O)N[C@H]1c2ccccc2C[C@H]1O"
### Response 9.4

### Prompt // lookup inhibition at 5 µM | system=VIPR2 (Homo sapiens) | key= "O=C(NC[C@@H](O)C[C@@H](Cc1ccccc1)C(=O)N[C@H]1c2ccccc2C[C@H]1O)C1CCCCCC1"
### Response 17

### Prompt # value lookup — system VIPR2 (Homo sapiens), readout inhibition at 5 µM, item "O=C(N[C@H]1c2ccccc2C[C@H]1O)[C@H](Cc1ccccc1)C[C@H](O)CNS(=O)(=O)c1ccc(C(F)(F)F)cc1"
### Response 98.5

### Prompt # returns recorded inhibition at 5 µM (system: VIPR2 (Homo sapiens)) for "NC[C@@H](O)C[C@@H](Cc1ccccc1)C(=O)N[C@H]1c2ccccc2C[C@H]1O"
### Response 15.2

### Prompt Checklist item: inhibition at 5 µM tested on VIPR2 (Homo sapiens), entry CC(C)(C)c1ccc(S(=O)(=O)NC[C@@H](O)C[C@@H](Cc2ccccc2)C(=O)N[C@H]2c3ccccc3C[C@H]2O)cc1 [A, reference compound] , value?
### Response 72.1

###

Reported inhibition at 1 µM values for the following molecules.
Target entity: VIPR2 (Homo sapiens, UniProt P41587)
Test protocol: Inhibition of VIP-induced cAMP elevation (% Activity cAMP)
Format: cell-based
Set-up: expressed in transfected cells; host or cells: HEK293 cells transfected with VIPR2 in pCDNA3.1 (as described)
Measurement conditions: 1 μM, Batch 1
Protocol: In a further non-limiting embodiment of the invention, the ability of a compound to inhibit VIPR2 and thereby […] a VIP-induced increase in cAMP may be measured using a Homogeneous Time-Resolved Fluorescence (“HTRF® assay; Cisbio Bioassays) as used in Chu et al., 2010, Molecular Pharmacol. 7795-101. […] After at least 1 h of room-temperature incubation, HTRF signal may be read, for example using Viewlux or EnVision (PerkinElmer Life and Analytical Sciences, Waltham, Mass.). […]
Number only, in %; omit the unit.

Observe how each entry below is paired with its result.
Molecule: Cc1ccc(S(=O)(=O)NC[C@@H](O)C[C@@H](Cc2ccccc2)C(=O)N[C@H]2c3ccccc3C[C@H]2O)cc1
Target entity: VIPR2 (Homo sapiens, UniProt P41587)
Measured endpoint: inhibition at 1 µM
Readout value: 63.5

Molecule: O=C(NC[C@@H](O)C[C@@H](Cc1ccccc1)C(=O)N[C@H]1c2ccccc2C[C@H]1O)C1CCCCCC1
Target entity: VIPR2 (Homo sapiens, UniProt P41587)
Measured endpoint: inhibition at 1 µM
Readout value: 17

Molecule: O=C(NC[C@@H](O)C[C@@H](Cc1ccccc1)C(=O)N[C@H]1c2ccccc2C[C@H]1O)C(Cl)Cl
Target entity: VIPR2 (Homo sapiens, UniProt P41587)
Measured endpoint: inhibition at 1 µM
Readout value: 18.3

### Prompt Return reported inhibition at 1 µM; argument: "NC[C@@H](O)C[C@@H](Cc1ccccc1)C(=O)N[C@H]1c2ccccc2C[C@H]1O"
### Response 15.9

### Prompt Fill in: inhibition at 1 µM of "O=C(NC[C@@H](O)C[C@@H](Cc1ccccc1)C(=O)N[C@H]1c2ccccc2C[C@H]1O)c1ccc([N+](=O)[O-])cc1" is ___
### Response 22.3
